system: Kv1.3 potassium channel (Homo sapiens, UniProt P22001)
Sequence (P22001 whole entry): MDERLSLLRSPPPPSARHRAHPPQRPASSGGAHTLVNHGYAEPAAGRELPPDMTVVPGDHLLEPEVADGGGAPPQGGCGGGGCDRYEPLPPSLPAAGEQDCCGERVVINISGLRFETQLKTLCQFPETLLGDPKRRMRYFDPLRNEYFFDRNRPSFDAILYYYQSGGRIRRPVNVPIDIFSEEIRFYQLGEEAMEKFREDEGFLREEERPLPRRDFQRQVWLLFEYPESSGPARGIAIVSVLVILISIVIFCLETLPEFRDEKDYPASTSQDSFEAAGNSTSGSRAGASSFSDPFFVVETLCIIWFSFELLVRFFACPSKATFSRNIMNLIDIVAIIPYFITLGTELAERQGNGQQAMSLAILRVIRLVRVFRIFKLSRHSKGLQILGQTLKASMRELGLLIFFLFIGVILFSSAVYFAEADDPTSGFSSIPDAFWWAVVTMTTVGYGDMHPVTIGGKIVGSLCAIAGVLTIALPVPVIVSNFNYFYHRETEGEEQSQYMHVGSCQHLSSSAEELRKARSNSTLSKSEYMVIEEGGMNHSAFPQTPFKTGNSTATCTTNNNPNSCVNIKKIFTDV
measurement-description: Whole-cell patch-clamp assay for inhibitory activity against Kv1.3 (peak current)
condition-description: HEK293 cells stably expressing Kv1.3, patch-clamp
Quick reference: IC50 of the listed items.
assay-readout: IC50 (nM)

[[record]]
molecule = "Oc1ccc(Cl)c(Cl)c1[C@@H]1Cc2nnc(-c3cccc4[nH]ncc34)n2C1"
assay_readout = "IC50"
meas_value = 23.8

[[record]]
molecule = "CCc1nn(C)c2c1C[C@@H](c1c(O)ccc(Cl)c1Cl)C2"
assay_readout = "IC50"
meas_value = 44.1

[[record]]
molecule = "CC(C)c1nnc2n1CC(c1c(O)ccc(Cl)c1Cl)C2 (stereo not drawn)"
assay_readout = "IC50"
meas_value = 20.6

[[record]]
molecule = "O=c1n(CC(F)F)nc2n1C[C@H](c1c(O)ccc(Cl)c1Cl)C2"
assay_readout = "IC50"
meas_value = 31

[[record]]
molecule = "CC(C)N1CCN(C(=O)c2nnc3n2CC(c2c(O)ccc(Cl)c2Cl)C3)CC1 (stereo not drawn)"
assay_readout = "IC50"
meas_value = 19.6

[[record]]
molecule = "Oc1ccc(Cl)c(Cl)c1[C@@H]1Cc2nnc(C3CCOCC3)n2C1"
assay_readout = "IC50"
meas_value = 47.8

